B1: minF1; the commonest letter at each place (parent)
chain: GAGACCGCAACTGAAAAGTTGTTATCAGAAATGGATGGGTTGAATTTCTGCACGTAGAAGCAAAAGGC

Variants of: B1
protocolNotes: fraction ligated after 30 min (ligated reads / total reads); higher = more ligase activity
setupConditions: with F1*subA RNA substrate (template-directed ligation), 42 °C
endpointLabel: fraction ligated
Lab note: write the figure by itself, no unit.

Record excerpt, results attached:
mutationCode | fraction ligated
A35T G42T | 0.00285
A35C A44T | 0.0114
G28C G34T | 0.00677
T25G G37A | 0.00178
C26T A44T | 0.246
A30C A35T | 0.01

Now look at this one.
Look at this variant and give its reported fraction ligated. A27T T32C
0.0794

Provenance of the data: the supplement of paper PMC6755084
